B1: TPR 5TU (parent)
chain: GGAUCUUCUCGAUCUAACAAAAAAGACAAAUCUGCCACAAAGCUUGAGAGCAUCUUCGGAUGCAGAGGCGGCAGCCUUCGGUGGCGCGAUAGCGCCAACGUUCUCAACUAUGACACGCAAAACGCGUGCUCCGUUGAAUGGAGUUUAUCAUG

- Variants of: B1
- runDescription: polymerase ribozyme fitness, log enrichment relative to wild type (log ratio); higher = more active; in vitro selection for triplet polymerase activity
Fewer inactive variants are shown than the library holds.
Response key: T means polymerase ribozyme fitness (log ratio) >= -3; F means polymerase ribozyme fitness (log ratio) < -3.

stdin: Could you verify whether the entry C35G C75U A91U U148C A150G shows polymerase ribozyme fitness (log ratio) of no less than -3?
stdout: F
